Numbers sourced from the supplement of paper PMC9112550.

System: Escherichia coli TOP10
runDescription: shrunken log2 fold change of peptide-encoding DNA abundance (4.5 h post-induction vs induction); higher = less antimicrobial activity (less host growth inhibition)
appliedConditions: time post-induction: 4.5 h; library: site-saturation at positions 5, 18, 19, 20
Entries and their shrunken log2 fold change

{"primarySequence": "RRIRWRPPRLPRPRPRPWDYPRP", "shrunken log2 fold change": -0.0902}
{"primarySequence": "RRIRVRPPRLPRPRPRPSYEPRP", "shrunken log2 fold change": -0.298}
{"primarySequence": "RRIRDRPPRLPRPRPRPLPPPRP", "shrunken log2 fold change": 0.306}

----------
Listing of recorded shrunken log2 fold change by entry.
System: Escherichia coli TOP10;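 note: peptides expressed intracellularly from a pBAD plasmid library in pooled LB shake-flask culture, induced with 0.3% L-arabinose, DNA abundance read by NGS, three biological replicates, DESeq2 with apeglm shrinkage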
runDescription: shrunken log2 fold change of peptide-encoding DNA abundance (4.5 h post-induction vs induction); higher = less antimicrobial activity (less host growth inhibition)
appliedConditions: time post-induction: 4.5 h; library: site-saturation at positions 5, 18, 19, 20

{"primarySequence": "RRIRFRPPRLPRPRPRPYFEPRP", "shrunken log2 fold change": -0.617}
{"primarySequence": "RRIRKRPPRLPRPRPRPYSCPRP", "shrunken log2 fold change": -0.0242}
{"primarySequence": "RRIRNRPPRLPRPRPRPLPMPRP", "shrunken log2 fold change": -0.14}
{"primarySequence": "RRIRFRPPRLPRPRPRPNYFPRP", "shrunken log2 fold change": -0.383}
{"primarySequence": "RRIRNRPPRLPRPRPRPLESPRP", "shrunken log2 fold change": -0.0331}
{"primarySequence": "RRIRPRPPRLPRPRPRPACEPRP", "shrunken log2 fold change": 0.0148}
{"primarySequence": "RRIRLRPPRLPRPRPRPCKQPRP", "shrunken log2 fold change": 0.0377}
{"primarySequence": "RRIRTRPPRLPRPRPRPYFVPRP", "shrunken log2 fold change": -0.258}
{"primarySequence": "RRIRARPPRLPRPRPRPFAGPRP", "shrunken log2 fold change": 0.0859}
